tested on: Wild type; assay: growth inhibition of S. aureus wild type versus tarO mutant, primary screen, teichoic acid synthesis inhibitors, RN4220, OD600 (AID 463173); conditions: S. aureus RN4220 wild type/DeltatarO growth, OD600, 18 h, concentration not given here
In all, about 52,000 compounds went through this assay and about 1,700 (3.3%) were called active. No stated cut-off is given here; in the data, active means survival mostly below about 52% (no sharp cut-off); inactive means mostly above about 56%. This excerpt belongs to a sample that is enriched for actives.
Outcomes: Y for active, N for inactive

1) Cc1ccc(NC(=O)N(Cc2ccc3c(c2)OCO3)C2CCN(Cc3ccccc3)CC2)cc1Cl; N
2) COc1ccccc1NC(=O)N(Cc1ccc2c(c1)OCO2)C1CCN(Cc2ccccc2)CC1; N
3) Cn1c(=O)n(C)c2cc(CNCCc3ccc(F)cc3)ccc21; N
4) Cc1ccc(NC(=O)N(Cc2ccc3c(c2)OCO3)C2CCN(Cc3ccccc3)CC2)cc1C; Y
5) COc1cccc(-n2c(/C=C/c3cccc(C)c3)nc3ccccc3c2=O)c1; Y
6) O=C(Nc1ccccc1)N(Cc1ccc2c(c1)OCO2)C1CCN(Cc2ccccc2)CC1; N
7) Cc1ccc2scc(N3CCN(C)CC3)c(=O)c2c1; N
8) Cc1ccc(Cl)cc1NC(=O)N(Cc1ccc2c(c1)OCO2)C1CCN(Cc2ccccc2)CC1; Y
9) COc1cccc(-n2c(/C=C\c3ccc(Cl)cc3)nc3ccccc3c2=O)c1; N
10) O=S1(=O)N(Cc2ccccc2)CCCN1Cc1cccc(Cl)c1; N

###

test system: Wild type; assay: growth inhibition of S. aureus wild type versus tarO mutant, primary screen, teichoic acid synthesis inhibitors, RN4220, OD600 (AID 463173); conditions: S. aureus RN4220 wild type/DeltatarO growth, OD600, 18 h, hits give low values, concentration not given here
Among all 52,000 compounds or so, about 1,700 (3.3%) were called active. The sample as a whole holds a higher share of actives than the screen did.
compounds and their reported survival
Metric: survival (%)

1) CCCOc1ccc(C2SCC(=O)Nc3c2c(C)nn3-c2cccc(C)c2)cc1OC (stereo not given); 62
2) CCCc1nc2ccccc2c(=O)n1-c1ccccc1; 127
3) CCCc1nc(SC)ncc1C(=O)Nc1ccc(Cl)cc1C(=O)c1ccccc1; 84
4) CCC(C)N1CCN(Cc2ccccc2)CC1 (stereo not given); 111
5) Cc1c(C(c2ccc(Br)cc2)c2c(O)c3ccccc3oc2=O)c(=O)n(-c2ccccc2)n1C (stereo not given); 69
6) NC(=O)CN1C2CCC1CC(NC(=O)C1CC1)C2 (stereo not given); 103
7) COc1ccc(NC(=O)CCc2nc(C3=CCN(Cc4cccc(Cl)c4)CC3)no2)cc1OC; 76
8) O=C1NC(=O)C(C(CC(=O)c2ccccc2)c2ccccc2)C(=O)N1 (stereo not given); 116
9) Nc1c(C(=O)Nc2ccc(Cl)c(C(F)(F)F)c2)sc2nc3c(cc12)N1CCC3CC1; 1
10) CN1CCC2(CC1)CC(NC=O)c1ccccc1O2 (stereo not given); 108
11) COC(=O)c1ccc(NC(=O)c2cccn(Cc3ccccc3C)c2=O)cc1; 88
12) Nc1c(C(=O)Nc2ccc(F)c(Cl)c2)sc2nc3c(cc12)N1CCC3CC1; 105
13) Cc1cccc(NC(=O)Cn2cc(C(=O)c3ccccc3)c3ccccc32)c1C; 71
14) COc1ccccc1C1SCC(=O)Nc2c1c(C)nn2-c1cccc(C)c1 (stereo not given); -10
15) C1CNC2NCCNC2N1 (stereo not given); 125
